Beta-secretase 1 (Homo sapiens, UniProt P56817) pIC50, compiled from various sources.
Sequence (P56817 whole entry): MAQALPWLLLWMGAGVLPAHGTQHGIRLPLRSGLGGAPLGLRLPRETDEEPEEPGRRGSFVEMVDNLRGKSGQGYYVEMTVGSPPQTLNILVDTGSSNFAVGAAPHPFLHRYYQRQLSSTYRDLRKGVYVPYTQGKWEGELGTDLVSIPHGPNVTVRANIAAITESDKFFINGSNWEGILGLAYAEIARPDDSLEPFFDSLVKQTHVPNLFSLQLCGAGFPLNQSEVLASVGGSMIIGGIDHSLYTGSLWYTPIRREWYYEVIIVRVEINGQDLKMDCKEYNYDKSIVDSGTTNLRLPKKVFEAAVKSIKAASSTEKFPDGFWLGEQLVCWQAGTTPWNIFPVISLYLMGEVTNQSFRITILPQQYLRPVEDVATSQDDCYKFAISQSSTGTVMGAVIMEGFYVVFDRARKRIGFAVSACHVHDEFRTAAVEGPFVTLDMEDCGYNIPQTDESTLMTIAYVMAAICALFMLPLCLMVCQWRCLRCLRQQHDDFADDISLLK
pIC50: −log10 of the molar value.
measured.metric: pIC50

> print(dat)
                                    compound  readout.qualifier  recorded.number
 1      O=C(/C=C/c1cc(O)cc(O)c1)c1ccc(O)cc1O                  =             5.68
 2        O=C(/C=C/c1cccc(O)c1O)c1ccc(O)cc1O                  =             6.57
 3  C[C@@H]1CCCCCCCCC(=O)N(C)[C@@H](C)C(=O)N[C@H]([C@H](O)CN[C@@H](C)c2cc(CC(C)(C)C)on2)C1                  =             9.00
 4  CCN1CCCCC[C@@H](C)C[C@@H]([C@H](O)CNCc2cccc(C(C)C)c2)NC(=O)c2cccc(c2)C1=O                  =             7.68
 5  CC(C)c1cccc(CNC[C@@H](O)[C@@H]2C[C@@H]3CC[C@H](CCCCCNc4cc(cc(C(F)(F)F)c4)C(=O)N2)C3)c1                  =             6.47
 6  CC(C)(NC[C@@H](O)[C@@H]1Cc2cccc(c2)CCCCNc2cncc(c2)C(=O)N1)c1cccc(Br)c1                  =             6.23
 7  CCC(C)C1NC(=O)C(SCc2ccco2)C1=O (stereo unspecified)                  =             3.70
 8  CC(C)c1cccc(CNC[C@@H](O)[C@@H]2C[C@H](C)CC/C=C/CCCCC(=O)N(C)[C@@H](C)C(=O)N2)c1                  =             6.52
 9  C[C@@H]1CCCCCCCNc2cccc(c2)C(=O)N[C@H]([C@H](O)CNC(C)(C)c2cc(CC(C)(C)C)on2)C1                  =             7.64
10  C=CC(C)Oc1cnc(C(=O)Nc2ccc(F)c([C@@]3(C)N=C(N)S[C@@]4(COC)C[C@H]43)c2)cn1 (stereo partly specified)                  =             7.43
11  CC(C)c1ccnc(C2(NC[C@@H](O)[C@@H]3C[C@H](C)CCCCCCCOc4cc(cc(Cl)n4)C(=O)N3)CC2)c1                  =             8.12
12  CCC(C)C1NC(=O)C(SCc2cccc(C(F)(F)F)c2)C1=O (stereo unspecified)                  =             4.22
13  COc1ccc(-c2cc(=O)c3c(O)cc(O)c(-c4cc(-c5cc(O)c6c(=O)cc(OC)cc-6o5)ccc4OC)c3o2)cc1                  <             5.00
14  CC(C)c1cccc(C(C)(C)NC[C@@H](O)[C@@H]2C[C@H](C)CCCCCCCNc3cccc(c3)C(=O)N2)c1                  =             6.27
15  COCc1cc2cc(c1)C(=O)N[C@H]([C@H](O)CNCc1cc(CC(C)(C)C)on1)Cc1cccc(c1)OCCCCN2                  =             7.85
16  O=C(/C=C/c1ccccc1[N+](=O)[O-])c1ccc(O)cc1O                  <             4.22
